Target: T1, human DLL3 (ACRO, DLL3-H52H4) (human, UniProt Q9NYJ7 27-492)
T1 construct: Bought
T1 sequence: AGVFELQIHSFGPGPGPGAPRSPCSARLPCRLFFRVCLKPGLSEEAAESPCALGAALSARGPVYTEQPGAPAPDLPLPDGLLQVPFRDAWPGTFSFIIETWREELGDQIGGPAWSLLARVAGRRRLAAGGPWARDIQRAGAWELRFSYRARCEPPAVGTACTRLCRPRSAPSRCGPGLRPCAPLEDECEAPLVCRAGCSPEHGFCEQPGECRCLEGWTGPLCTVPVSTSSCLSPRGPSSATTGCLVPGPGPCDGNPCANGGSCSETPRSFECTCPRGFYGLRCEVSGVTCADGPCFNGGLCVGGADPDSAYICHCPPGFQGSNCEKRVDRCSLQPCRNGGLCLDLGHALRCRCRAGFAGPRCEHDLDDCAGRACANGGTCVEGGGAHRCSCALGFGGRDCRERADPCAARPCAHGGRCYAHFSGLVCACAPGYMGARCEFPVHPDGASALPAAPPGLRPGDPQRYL
Assay: SPR Biacore 8K, Ab captured on Protein A
# maps each entry to its kon
The response must be a number in M⁻¹ s⁻¹ with no trailing unit.

BINDER: hu110L2H2 (antibody, human IgG1, kappa, V domains shown) VH: EVQLVQSGAEVKKPGASVKVSCKTSGYTFTDYYMNWVRQAPGQSLEWMGIINPYNGGTSYTQKFKGRVTITVDKSASTAYMELSSLRSEDTAVYYCARHFYDSSYLTYSTMDYWGQGTTVTVSS VL: NIVMTQSPKSLAVSLGERATINCKASENVGIFVSWYQQKPGQSPKLLIYGASNRYTGVPDRFSGSGSATDFTLTISSLQAEDVADYYCGQSHSYPLTFGQGTKLEIKR
kon / M⁻¹ s⁻¹: 521000

BINDER: hu30L4H9 (antibody, human IgG1, kappa, V domains shown) VH: EVRLVQSGAEVKKPGASVKVSCKASGYTFTDYYMNWVRQAPGQSLEWIGIINPYTGDTSYNQKFRGRATLTVDKSASTAYMELSSLRSEDTAVYYCARYHYGPHLEGYFDVWGQGTTVTVSS VL: DIQMTQSPSSLSASVGDRVTITCKASENVGYVSWYQQKPGKAPKLLIYGASNRYTGVPSRFSGSGSGTDFTLTISSLQPEDFATYYCGQSYSYPLTFGQGTKLEIKR
kon / M⁻¹ s⁻¹: 392000

BINDER: hu30L3H5 (antibody, human IgG1, kappa, V domains shown) VH: EVRLVQSGAEVKKPGASVKVSCKASGYTFTDYYMNWVRQAPGQSLEWMGIINPYTGDTSYNQKFRGRVTLTVDKSASTAYMELSSLRSEDTAVYYCARYHYGPHLEGYFDVWGQGTTVTVSS VL: DIVMTQSPKSLAVSLGERATINCKASENVGYVSWYQQKPGQSPKLLIYGASNRYTGVPDRFSGSGSATDFTLTISSLQAEDVAVYHCGQSYSYPLTFGQGTKLEIKR
kon / M⁻¹ s⁻¹: 1.12e+06

BINDER: hu6L2H7 (antibody, human IgG1, kappa, V domains shown) VH: EVQLVESGGGLVQPGGSLKLSCAASGYTFTDYYMNWVRQASGKGLEWVGIINPYSGVTIYNHKFKGRFTLSVDKSKNTAYLQMNSLKTEDTAVYYCARQDSLLDYAMDYWGQGTTVTVSS VL: DIQMTQSPSSLSASVGDRVTITCHASQGISGNMGWLQQKPGKAPKGLIYHGANLEDGVPSRFSGSGSGADYTLTISSLQPEDFATYYCVQYAQFPYTFGGGTKVEIKR
kon / M⁻¹ s⁻¹: 670000

Incoming: Name the recorded kon of the binder listed here: hu110L2H1 (antibody, human IgG1, kappa, V domains shown) VH: EVQLVQSGAEVKKPGASVKVSCKASGYTFTDYYMNWVRQAPGQRLEWMGIINPYNGGTSYTQKFKGRVTITVDKSASTAYMELSSLRSEDTAVYYCARHFYDSSYLTYSTMDYWGQGTTVTVSS VL: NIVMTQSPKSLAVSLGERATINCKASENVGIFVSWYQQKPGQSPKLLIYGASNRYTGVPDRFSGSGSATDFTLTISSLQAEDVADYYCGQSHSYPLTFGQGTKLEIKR
Outgoing: 509000
